The entries below come with measured Difference of -log TCID50 /ml, IPNV values attached.
- Test system: Infectious pancrease necrosis virus (IPNV)
- Type: cell-based
Structures can show the parent of a compound that is named as a salt.
measured-attribute: Difference of -log TCID50 /ml, IPNV

INSERT INTO assay_data (molecule, number) VALUES
  ('NC(=O)NCC(N)C(=O)O (racemic)', 3.50),
  ('COC(=O)[C@@H](N)Cc1ccc(O)cn1 [hydrochloride]', 3.75),
  ('NC(CCP(=O)(O)O)C(=O)O (racemic)', 1.30),
  ('NC(Cc1ccc(O)cn1)C(=O)O (racemic) [DL-p-Hydroxypyridylmethyl glycine]', 3.50),
  ('NC(Cc1ccc(F)cc1)C(=O)O (racemic) [DL-p-fluoro-phenyl alanine, reference compound]', 0),
  ('N[C@@H](CNC(=O)NO)C(=O)O [L-Hydroxyureidomethyl glycine]', 4.00),
  ('O=C(O)C1NC2CC21 (stereo not shown)', 3.50),
  ('NC(=O)NC[C@H](N)C(=O)O [L-Ureidomethyl glycine hydrochloride]', 3.75),
  ('N[C@@H](Cc1ccc(O)cn1)C(=O)O', 3.75),
  ('Cl.NC12CC3CC(CC(C3)C1)C2 [1-Adamantanamine hydrochloride, reference compound]', 2.75);
